Hello, the source for this data is the supplement of paper PMC10567573, in case you need it.

B1: ACBD3 (parent)
chain: YVASHKIEKEEQEKKRKEEEERRR

variants of: B1; experiment: protein stability index of a GFP-peptide fusion (GPS, HEK-293T) (PSI 1-6); higher = more stable; conditions: c terminus: a fixed tail appended;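 note: lentivirally expressed fusions sorted by FACS into six bins by GFP to DsRed ratio, PSI derived from sequencing read proportions per bin multiplied by bin number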

{"mutant.code": "E10T", "protein stability index": 2.08}
{"mutant.code": "E21K", "protein stability index": 2.35}
{"mutant.code": "E20L", "protein stability index": 1.71}
{"mutant.code": "R16A", "protein stability index": 3.02}
{"mutant.code": "E21W", "protein stability index": 2.67}
{"mutant.code": "K14N", "protein stability index": 2.99}
{"mutant.code": "E11S", "protein stability index": 2.57}
{"mutant.code": "E8R", "protein stability index": 2.81}
{"mutant.code": "E11T", "protein stability index": 4.28}
{"mutant.code": "E21Y", "protein stability index": 2.15}
{"mutant.code": "E20V", "protein stability index": 1.82}
{"mutant.code": "A3N", "protein stability index": 2.39}
{"mutant.code": "S4R", "protein stability index": 2.57}
{"mutant.code": "S4G", "protein stability index": 2.39}
{"mutant.code": "E8Y", "protein stability index": 2.32}
{"mutant.code": "K14I", "protein stability index": 3.21}
{"mutant.code": "E20K", "protein stability index": 2.83}
{"mutant.code": "I7D", "protein stability index": 3.86}
{"mutant.code": "R16T", "protein stability index": 3.41}
{"mutant.code": "Y1H", "protein stability index": 5.57}
{"mutant.code": "I7Y", "protein stability index": 2.36}
{"mutant.code": "E13I", "protein stability index": 2.22}
{"mutant.code": "K15M", "protein stability index": 2.6}
{"mutant.code": "Y1S", "protein stability index": 5.5}
{"mutant.code": "S4Q", "protein stability index": 3.14}
{"mutant.code": "E11P", "protein stability index": 1.76}
{"mutant.code": "E21S", "protein stability index": 2.52}
{"mutant.code": "R22P", "protein stability index": 2.72}
{"mutant.code": "V2E", "protein stability index": 5.85}
{"mutant.code": "E10V", "protein stability index": 2.46}
{"mutant.code": "E10M", "protein stability index": 2.42}
{"mutant.code": "K14L", "protein stability index": 3}
{"mutant.code": "E21G", "protein stability index": 2.03}
{"mutant.code": "E13L", "protein stability index": 2.27}
{"mutant.code": "S4V", "protein stability index": 3.28}
{"mutant.code": "K14P", "protein stability index": 2.49}
{"mutant.code": "H5M", "protein stability index": 2.5}
{"mutant.code": "E8C", "protein stability index": 2.42}
{"mutant.code": "E20N", "protein stability index": 2.56}
{"mutant.code": "K6R", "protein stability index": 2.74}
{"mutant.code": "K15D", "protein stability index": 2.73}
{"mutant.code": "K17S", "protein stability index": 3.09}
{"mutant.code": "E21M", "protein stability index": 2.04}
{"mutant.code": "E20Y", "protein stability index": 1.58}
{"mutant.code": "E13F", "protein stability index": 2.39}
{"mutant.code": "H5V", "protein stability index": 3.05}
